Recorded values, source patent US20200000897A1.

# ASSAY TARGET: T1, HLA-A*03:01 (human)
# T1 construct: MHC class I monomer first loaded with a UV-sensitive peptide that is cleaved by UV irradiation and exchanged for the test peptide; captured on streptavidin plates; also called peptide-receptive MHC molecules
# EXPERIMENT SUMMARY: UV-ligand exchange, anti-b2m ELISA; peptide exchange yield grade (>10% +, >20% ++, >50% +++, >75% ++++)
# From the text: Candidate peptides for T cell based therapies according to the present invention were further tested for their MHC binding capacity (affinity). The individual peptide-MHC complexes were produced by UV-ligand exchange, where a UV-sensitive peptide is cleaved upon UV-irradiation and exchanged with the peptide of interest as analyzed. Only peptide candidates that can effectively bind and stabilize the peptide-receptive MHC molecules prevent dissociation of the MHC complexes. […]
A collection of binders and their measured peptide exchange yield

Here's what some known entries look like.
In [3]: df
Out[3]:
      binder             metric_name   measured
0  ILNLNKMVK  peptide exchange yield  50 to 75%
1  IVFPDVISK  peptide exchange yield      > 75%
2  AILHPFRAK  peptide exchange yield  50 to 75%

Reported peptide exchange yield for SIINFKPLTY : what is it? 50 to 75%
